System: Zika virus NS2B-NS3 protease (linked construct)
Test: Primary screen NINDS Rhodamine qHTS for Zika virus inhibitors (AID 1347160); further: nearly all actives have a fitted effect of over 55% in size
Conditions: purified NS2B-NS3 protease, Rhodamine110 substrate fluorescence; series mostly up to 57.1 µM
Inconclusive results are not listed. Calls of active or inactive are those of the source. The call rests on the fitted dose curve; in most records, active means well fitted inhibition curve with a large enough effect; inconclusive means small, poorly fitted or top-dose-only effect; inactive means no such curve, though single readings can be large or run the other way.
Classes used: Yes for active, No for inactive

{"COMPOUND": "CCOC(=O)c1ccc(N(C)c2csc(-c3ccccc3)n2)cc1", "ASSAY_SYSTEM": "Zika virus NS2B-NS3 protease (linked construct)", "CLASS_ASSIGNMENT": "No"}
{"COMPOUND": "CC1(C)CC[C@]2(C(=O)O[C@@H]3O[C@H](CO)[C@@H](O)[C@H](O)[C@H]3O)CC[C@]3(C)C(=CCC4[C@@]5(C)C[C@@H](O)[C@H](O)C(CO)(CO)C5CC[C@]43C)C2[C@@H]1O (stereo partly specified)", "ASSAY_SYSTEM": "Zika virus NS2B-NS3 protease (linked construct)", "CLASS_ASSIGNMENT": "No"}
{"COMPOUND": "Clc1ccc2c(c1)C1=NCCN1c1c(-c3noc(C4CC4)n3)ncn1-2", "ASSAY_SYSTEM": "Zika virus NS2B-NS3 protease (linked construct)", "CLASS_ASSIGNMENT": "No"}
{"COMPOUND": "C=C1C(=O)O[C@H]2[C@H]1[C@@H](OC(=O)C(C)CO)C[C@@]1(C)[C@H](O)CCC(=O)[C@H]21 (stereo partly specified)", "ASSAY_SYSTEM": "Zika virus NS2B-NS3 protease (linked construct)", "CLASS_ASSIGNMENT": "No"}
{"COMPOUND": "NC(=O)c1cccc(-c2cc(O)cc(OC(=O)NC3CCCCC3)c2)c1", "ASSAY_SYSTEM": "Zika virus NS2B-NS3 protease (linked construct)", "CLASS_ASSIGNMENT": "No"}
{"COMPOUND": "C=C1C[C@]23C[C@H]1CC[C@H]2[C@]1(C)CCC[C@@]2(CO)C(=O)O[C@H]([C@H]21)[C@@H]3O", "ASSAY_SYSTEM": "Zika virus NS2B-NS3 protease (linked construct)", "CLASS_ASSIGNMENT": "No"}
{"COMPOUND": "C=C1[C@@H]2[C@H]3OC(=O)C(=C)[C@@H]3CC[C@@](C)(O)[C@@H]2C[C@@H]1O[C@@H]1O[C@H](CO)[C@@H](O)[C@H](O)[C@H]1O", "ASSAY_SYSTEM": "Zika virus NS2B-NS3 protease (linked construct)", "CLASS_ASSIGNMENT": "No"}
{"COMPOUND": "CC1(C)O[C@@]2(C)CC[C@@H]1C[C@@H]2OC1OC(CO)C(O)C(O)C1O (stereo partly specified)", "ASSAY_SYSTEM": "Zika virus NS2B-NS3 protease (linked construct)", "CLASS_ASSIGNMENT": "Yes"}
{"COMPOUND": "CC(C)C1=CCC(C)(O)C(OC2OC(CO)C(O)C(O)C2O)C1 (stereo unspecified)", "ASSAY_SYSTEM": "Zika virus NS2B-NS3 protease (linked construct)", "CLASS_ASSIGNMENT": "Yes"}
{"COMPOUND": "OC[C@H]1O[C@@H](Oc2ccc3c(c2)OC[C@H]2c4cc5c(cc4O[C@@H]32)OCO5)[C@H](O)[C@@H](O)[C@@H]1O", "ASSAY_SYSTEM": "Zika virus NS2B-NS3 protease (linked construct)", "CLASS_ASSIGNMENT": "No"}
{"COMPOUND": "Nc1c(Br)cc(Br)cc1CNC1CCC(O)CC1 (stereo unspecified)", "ASSAY_SYSTEM": "Zika virus NS2B-NS3 protease (linked construct)", "CLASS_ASSIGNMENT": "No"}
{"COMPOUND": "OCCc1ccc(O[C@@H]2O[C@H](CO)[C@@H](O)[C@H](O)[C@H]2O)c(O)c1", "ASSAY_SYSTEM": "Zika virus NS2B-NS3 protease (linked construct)", "CLASS_ASSIGNMENT": "No"}
{"COMPOUND": "COc1cc(C(=O)OC[C@H]2O[C@H](O[C@@]3(CO)O[C@@H](CO)[C@H](O)[C@H]3O)[C@H](O)[C@@H](O)[C@@H]2O)ccc1O", "ASSAY_SYSTEM": "Zika virus NS2B-NS3 protease (linked construct)", "CLASS_ASSIGNMENT": "No"}
{"COMPOUND": "CN(C)c1cccc(-c2c3c(=O)n(-c4ccccc4Cl)[nH]c3cc(=O)n2C)c1", "ASSAY_SYSTEM": "Zika virus NS2B-NS3 protease (linked construct)", "CLASS_ASSIGNMENT": "No"}
{"COMPOUND": "C=C1CCC2C(OC(=O)C2(O)COC(C)=O)C2C(=C)C(O)CC12 (stereo unspecified)", "ASSAY_SYSTEM": "Zika virus NS2B-NS3 protease (linked construct)", "CLASS_ASSIGNMENT": "No"}
{"COMPOUND": "O=C(/C=C/c1ccc(O)cc1)OC[C@]12O[C@H]1[C@@H](O)[C@@H]1C=CO[C@@H](O[C@@H]3O[C@H](CO)[C@@H](O)[C@H](O)[C@H]3O)[C@@H]12", "ASSAY_SYSTEM": "Zika virus NS2B-NS3 protease (linked construct)", "CLASS_ASSIGNMENT": "No"}

* * *

Tested on: CP329
Experiment: qHTS profiling for inhibitors of Plasmodium falciparum proliferation (AID 504749); further: nearly all actives have a fitted effect of over 60% in size
Conditions: P. falciparum in erythrocytes, SYBR Green DNA, 72 h; series mostly up to 28.7 µM
Results filed as inconclusive are left out. Activity calls are given as the source filed them. Calls follow the shape of the dose curve; as a rule, active = well fitted inhibition curve with a large enough effect; inconclusive = small, poorly fitted or top-dose-only effect; inactive = flat fitted curve, though single readings scatter.
Classes used: active, inactive

{"COMPOUND": "CCCCC(CC)COC(=O)CC(C(=O)OCC(CC)CCCC)S(=O)(=O)O (configuration not stated)", "CLASS_ASSIGNMENT": "inactive"}
{"COMPOUND": "CC(O)CO (configuration not stated)", "CLASS_ASSIGNMENT": "inactive"}
{"COMPOUND": "C#C[C@]1(O)CC[C@H]2[C@@H]3CCC4=CCCC[C@@H]4[C@H]3C(=C)C[C@@]21CC", "CLASS_ASSIGNMENT": "inactive"}
{"COMPOUND": "CC(NNC(=O)c1ccccc1)c1ccccc1 (configuration not stated)", "CLASS_ASSIGNMENT": "inactive"}
{"COMPOUND": "O=C(O)CN(CCN(CC(=O)O)CC(=O)O)CC(=O)O", "CLASS_ASSIGNMENT": "inactive"}
{"COMPOUND": "CC(=O)Oc1c(C)cc(OCC(O)CNC(C)C)c(C)c1C (configuration not stated)", "CLASS_ASSIGNMENT": "inactive"}
{"COMPOUND": "COc1cc(-c2ccc(-[n+]3nc(-c4ccccc4)nn3-c3ccc([N+](=O)[O-])cc3)c(OC)c2)ccc1-[n+]1nc(-c2ccccc2)nn1-c1ccc([N+](=O)[O-])cc1", "CLASS_ASSIGNMENT": "active"}
{"COMPOUND": "Cc1ccccc1OCC(O)CNCCOc1ccc(C(N)=O)cc1 (configuration not stated)", "CLASS_ASSIGNMENT": "inactive"}
{"COMPOUND": "O=C(O)CCC(=O)C(=O)O", "CLASS_ASSIGNMENT": "inactive"}
{"COMPOUND": "CC[N+](C)(C)Cc1ccccc1Br", "CLASS_ASSIGNMENT": "inactive"}
{"COMPOUND": "CN1C(=O)CN2CCc3ccccc3C2c2cc(Cl)ccc21 (configuration not stated)", "CLASS_ASSIGNMENT": "inactive"}
{"COMPOUND": "CN(C)CCCN1c2ccccc2C(C)(C)c2ccccc21", "CLASS_ASSIGNMENT": "inactive"}

* * *

Reported viability (% of control) values for a set of compounds
Assay: Cell Proliferation Assay against the TMD8 Cell Line (AID 651645);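 further: cells exposed to compound for 48 h before reading; 100% = DMSO and 0% = 9.2 µM bortezomib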
Details: TMD8 DLBCL cell line proliferation/viability; at 46.1 µM (top of the series) unless noted

{"COMPOUND": "COC(=O)C1=C(C)NC(C)=C(C(=O)OCCCN2CCC(c3ccccc3)(c3ccccc3)CC2)[C@H]1c1cccc([N+](=O)[O-])c1", "viability (% of control) [%]": 2.99}
{"COMPOUND": "O=c1cc(C2=CC=CC3Sc4ccccc4SC23)oc(N2CCOCC2)c1 (stereo not given)", "viability (% of control) [%]": 10.5}
{"COMPOUND": "CCC1(O)CC2CN(CCc3c([nH]c4ccccc34)[C@@](C(=O)OC)(c3cc4c(cc3OC)N(C=O)[C@H]3[C@](O)(C(=O)OC)[C@H](OC(C)=O)[C@]5(CC)C=CCN6CC[C@]43[C@@H]65)C2)C1 (stereo not given in full)", "viability (% of control) [%]": -0.162}
{"COMPOUND": "CCOc1cc2ncc(C#N)c(Nc3ccc(OCc4ccccn4)c(Cl)c3)c2cc1NC(=O)/C=C/CN(C)C", "viability (% of control) [%]": -0.655}
{"COMPOUND": "NC(=O)Nc1cc(-c2ccc(CN3CCOCC3)c(F)c2)sc1C(=O)N[C@H]1CCCNC1", "viability (% of control) [%]": 1.45}

Hello, the source for this data is PubChem BioAssay (NCATS), in case you need it.
